System: UACC-62 melanoma
Test: NCI tumour cell line growth inhibition, 48 h
measured.quantity: TGI (µM)
Please give a number only; it is taken to be in µM.

Here is how some molecules turned out for TGI.
| molecule | u | obs.value |
| --- | --- | --- |
| CNCc1cccc2c1OCCOCCOCCN(C)S(=O)(=O)c1ccc(cc1)-c1cnc(N)c(n1)C(=O)N2 | µM | 2.87 |
| CC1=CC2C3(C)C(C)(C(C)=CP3(=O)c3c(C(C)C)cc(C(C)C)cc3C(C)C)C1P2(=O)c1c(C(C)C)cc(C(C)C)cc1C(C)C (stereo unspecified) | µM | 2.92 |

Record CCN1C(=S)N(CC)C2C1NC(=S)N2/N=C/C=C/c1ccccc1OC (stereo unspecified) , field TGI: 25.6

Record "CC(C)Oc1cccc(N2C(n3ccnc3)=Nc3ccncc3S2(=O)=O)c1" , field TGI: 29.2

Record "O=C1/C(=C/c2ccc(Cl)c(Cl)c2)CN(C(=O)CCN2CCC(=NO)CC2)C/C1=C\c1ccc(Cl)c(Cl)c1" , field TGI: 1.87

Record "Cc1c2cccc-2c2cc(O)c3ccccc3c2n1-c1ccc(N(C)C)cc1" , field TGI: 29.5

* * *

Tested on: OVCAR-5 ovarian
Test: NCI tumour cell line growth inhibition, 48 h
# reported TGI; entries follow

| compound | obs.value |
| --- | --- |
| O=C1NC(=O)c2c1n(Cc1ccccc1)c(=O)n2Cc1ccccc1 | > 100 µM |
| O=C1NN(C2=NNC3(C(=O)N2)c2ccccc2-c2ccccc23)C(c2ccccc2)=N/C1=C/c1ccc(Cl)cc1 | > 150 µg/mL |
| CN[C@@H](C)C(=O)N[C@H]1CN(S(=O)(=O)c2cccc(S(=O)(=O)N3CC[C@H]4CC[C@@H](C(=O)NC(c5ccccc5)c5ccccc5)N4C(=O)[C@@H](NC(=O)[C@H](C)NC)C3)c2)CC[C@H]2CC[C@@H](C(=O)NC(c3ccccc3)c3ccccc3)N2C1=O | 39.9 µM |
| Cn1nccc1Nc1nccc(-c2ccn([C@H](CO)c3ccc(Cl)c(F)c3)c(=O)c2)n1 | > 100 µM |

As a next step, examine the compound that follows.
Record "NC1=CC(=O)c2c(O)ccc(O)c2C1=O" , field TGI: 35.3 µM

* * *

# reported TGI; entries follow
Tested on: EKVX NSCLC
Assay: NCI tumour cell line growth inhibition, 48 h

Here is how some compounds turned out for TGI.
| compound | test.system | TGI |
| --- | --- | --- |
| CCCCCCCCCCCC[N+]1(CCCCCCCCCCCC)CCCC(C)C1 (stereo not drawn) | EKVX NSCLC | 1.65 µM |
| O=C1/C(=C\c2ccccc2)CN(C(=O)CCN2CCCCC2)C/C1=C/c1ccccc1 | EKVX NSCLC | 10.6 µM |
| CCOC(=O)c1nc(C)oc1C(F)(F)F | EKVX NSCLC | > 100 µM |

As a next step, examine the compound that follows.
Record "CCOC(=O)c1c(N2CCCC2)[nH]c(=O)c(C(c2ccc(OC)cc2)c2c(O)c(C(=O)OCC)c(N3CCCC3)[nH]c2=O)c1O" , field TGI: > 100 µM

* * *

# reported TGI; entries follow
Test system: U251 CNS
Assay: NCI tumour cell line growth inhibition, 48 h

Record "CC(=O)NNc1nc(C)c(C(=O)NNC(=O)C(=O)Nc2ccc([N+](=O)[O-])cc2[N+](=O)[O-])s1" , field TGI: > 100 µM

Record COC(=O)c1ccccc1C1CN=NC12Cc1c(ccc(C)c1C)C2=O (stereo not given) , field TGI: > 100 µM

Record "COc1cc2nc(-c3ccc(Cl)cc3)cc(OCCCN3CCOCC3)c2cc1OC" , field TGI: > 100 µM

Record "O=C(Nc1cccc(-n2cc(-c3ccncc3)c(-c3cc(O)cc(Cl)c3)n2)c1)c1ccc(N2CCOCC2)c(C(F)(F)F)c1" , field TGI: 6.3 µM

Record CN(C)c1ccc(/C=C(\NC(=O)c2ccccc2)C(=O)NC(CC(=O)O)C(=O)O)cc1 (stereo not given) , field TGI: > 100 µM

Where do these numbers come from? They come from PubChem BioAssay (NCI).
